Source listed as paper PMC7318006.

- methodNotes: Concentration in autopsy samples of cerebral cortex of deceased patients, HPLC-UV
- Format: in vivo, human
- particulars: human, cerebral cortex; patient 7, cumulative dose 700 mg, treatment 6 days, 32 h between last administration and death, 14 h between death and sampling, LLOQ 0.05 μg/g; read-out: Concn in cerebral cortex (autopsy)
Starred links: 1 amine or outer side, 2 acyl side, 3 side chain; linkers in the order of their positions; H or OH if unused. Positions of bridges follow the written chain, without caps; N, C: chain ends. Non-standard residues stand in square brackets, D forms with d. Residues, ends and D or L forms follow the SMILES beside them. *: point of attachment. pTerphenylCO(4''-OnC5H11) = CCCCCOc1ccc(-c2ccc(-c3ccc(C(=O)*)cc3)cc2)cc1; Orn(4R-OH,5R-OH) = O=C([C@H](C[C@@H](O)[C@@H](O)N[*:3])N[*:1])[*:2]; hTyr(3S-OH,4S-OH) = N[C@H](C(=O)O)[C@H](O)[C@@H](O)c1ccc(O)cc1; Pro(3S-OH,4S-Me) = C[C@H]1CN[C@H](C(=O)O)[C@H]1O; Hyp = O=C(O)[C@@H]1C[C@@H](O)CN1

compound: CCCCCOc1ccc(-c2ccc(-c3ccc(C(=O)N[C@H]4C[C@@H](O)[C@@H](O)NC(=O)[C@@H]5[C@@H](O)[C@@H](C)CN5C(=O)[C@H]([C@@H](C)O)NC(=O)[C@H]([C@H](O)[C@@H](O)c5ccc(O)cc5)NC(=O)[C@@H]5C[C@@H](O)CN5C(=O)[C@H]([C@@H](C)O)NC4=O)cc3)cc2)cc1 [anidulafungin] ({pTerphenylCO(4''-OnC5H11)}-[Orn(4R-OH,5R-OH)]T[Hyp][hTyr(3S-OH,4S-OH)]T[Pro(3S-OH,4S-Me)]; lactam 1-C)
endpointUnit: ng/g
tissue level at time at 32 h: 210
